System: Methionine sulfoxide reductase A (Bos taurus)
Experiment: bovine MsrA enzyme inhibitors, primary screen, biochemical, absorbance, HTS (AID 651718);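 also: 0% = vehicle wells with enzyme and 100% = reference inhibitor wells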
Details: purified bovine MsrA, absorbance read-out; at 15.5 µM; active compounds read high
Among all 360,000 compounds or so, about 2,700 (0.75%) were called active. The full list was thinned out, with actives kept by preference.
READOUT LABEL: inhibition (%)
Could you give me the number in %? Just the number is fine.

Lab request: please report inhibition under test system Methionine sulfoxide reductase A (Bos taurus) for COc1ccc(/C=C/C(=O)NC(=S)N2CCCC(C(N)=O)C2)cc1 (stereo unspecified)
5.75

Lab request: please report inhibition under test system Methionine sulfoxide reductase A (Bos taurus) for COc1ccc(CN2CCCC(C(=O)N3CCCCC3)C2)cc1 (stereo unspecified)
-0.76

Lab request: please report inhibition under test system Methionine sulfoxide reductase A (Bos taurus) for COC(=O)C1=C(C)N(Cc2ccccc2C(F)(F)F)C(=NCc2ccc(OC)cc2)NC1c1cccc(C(F)(F)F)c1 (stereo unspecified)
-3.43

Lab request: please report inhibition under test system Methionine sulfoxide reductase A (Bos taurus) for Cc1ccc(/C=N/NC(=O)Cn2nc(C)c(Br)c2C)o1
1.58

Lab request: please report inhibition under test system Methionine sulfoxide reductase A (Bos taurus) for CCCCNC(=O)C(C)N(CCN(C)C)C(=O)CCCCCN1C(=O)NC(c2ccc(Cl)cc2)C(C(=O)OCc2ccccc2)=C1C (stereo unspecified)
1.77

Lab request: please report inhibition under test system Methionine sulfoxide reductase A (Bos taurus) for C/C(=N\NC(=S)NC1CCCCC1)c1ccc(C)o1
2.23

---

Test system: Methionine sulfoxide reductase A (Bos taurus)
Assay: bovine MsrA enzyme inhibitors, primary screen, biochemical, absorbance, HTS (AID 651718);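 also: 0% = vehicle wells with enzyme and 100% = reference inhibitor wells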
Conditions: purified bovine MsrA, absorbance read-out; at 15.5 µM
The campaign covered roughly 360,000 compounds. About 2,700 (0.75%) were called active. Rule as the data show it: active = inhibition above about 4.5%; inactive = the rest. This excerpt belongs to a sample that is enriched for actives.
Classes to choose from: active, inactive

For CCN(CC)c1ccc(/C=N/NC(=O)CNC(=O)c2cccs2)cc1 , what call appears in the results of this test?
active

For CCN(C(=O)CSc1nnc(-c2ccncc2)o1)c1ccccc1 , what call appears in the results of this test?
inactive

For CCOc1cc(/C=N/NC(=O)c2ccncc2)cc(Br)c1O , what call appears in the results of this test?
inactive

For CC(C)c1ccc(/C=C2\NC(=O)NC2=O)cc1 , what call appears in the results of this test?
inactive

For CN(CCO)c1ccc(/C=N/Nc2nncc3ccccc23)cc1 , what call appears in the results of this test?
inactive

For CSc1ccc(/C=C2\NC(=O)NC2=O)cc1 , what call appears in the results of this test?
active

For COc1cc(Nc2nc3ccc(Cl)cc3n3cnnc23)cc(OC)c1OC , what call appears in the results of this test?
inactive

For CCOc1cccc(NC(=O)Cn2nc(-c3ccc4c(c3)OCCO4)ccc2=O)c1 , what call appears in the results of this test?
inactive

For O=C(Nc1ccc(C(=O)O)cc1)/C(=C/c1ccc([N+](=O)[O-])cc1)NC(=O)c1ccccc1 , what call appears in the results of this test?
active

For Cc1ccc(C(=O)N/C(=C/C=C/c2ccccc2)C(=O)NCc2ccco2)cc1 , what call appears in the results of this test?
inactive

For CCCCn1c(N)c(N(CCOC)C(=O)COc2c(C)cccc2C)c(=O)[nH]c1=O , what call appears in the results of this test?
inactive

For Cc1cccc(C)c1NC(=O)C(Cl)C(=O)c1ccccc1 (stereo unspecified) , what call appears in the results of this test?
inactive

For O=C(CNC(=O)C(c1ccccc1)c1ccccc1)N/N=C\c1ccc2c(c1)OCO2 , what call appears in the results of this test?
inactive

For CCCOc1cccc(C(=O)NCCCNC(=O)c2cccnc2)c1 , what call appears in the results of this test?
inactive

For O=C(N/N=C/c1cccc(OC(=O)c2ccc([N+](=O)[O-])cc2)c1)c1cccnc1 , what call appears in the results of this test?
inactive

For Cc1ccc2nc(CN(C)C(=O)[C@@H](Cc3ccccc3)NC(=O)[C@H]3O[C@@H](n4ccc(=O)[nH]c4=O)[C@H](O)[C@@H]3O)[nH]c2c1 , what call appears in the results of this test?
inactive

For O=C(Nc1ccc(C(=O)O)cc1)/C(=C\c1ccccc1)NC(=O)c1ccc(Br)cc1 , what call appears in the results of this test?
inactive

For CNC(=O)/C(=C\C=C\c1ccccc1)NC(=O)c1ccc([N+](=O)[O-])cc1 , what call appears in the results of this test?
active

For O=C(O)c1ccc(N/N=C/c2ccc3ncccc3c2)cc1 , what call appears in the results of this test?
active

For CC(C=Cc1ccccc1)=NNS(=O)(=O)c1ccc([N+](=O)[O-])cc1 , what call appears in the results of this test?
inactive

For O=C(CNC(=O)c1cccnc1)N/N=C/c1cc(Br)c(O)c(Br)c1 , what call appears in the results of this test?
active

---

For each of the molecules below, state its inhibition.
Tested on: Methionine sulfoxide reductase A (Bos taurus)
Assay: bovine MsrA enzyme inhibitors, primary screen, biochemical, absorbance, HTS (AID 651718);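 also: 0% = vehicle wells with enzyme and 100% = reference inhibitor wells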
Details: purified bovine MsrA, absorbance read-out; at 15.5 µM; active compounds read high
Among all 360,000 compounds or so, about 2,700 (0.75%) were called active. Only a selection was taken, and actives are over-represented in it overall.
Could you give me the number in %? Just the number is fine.

Data request, read-out inhibition, for O=C(/C=C/Sc1ncn[nH]1)c1ccc(Cl)cc1
5.19

Data request, read-out inhibition, for CCOC(=O)C1=C(C(=O)OCC)C2N(Cc3ccc(C#N)cc3)c3ccccc3[C@@]23C[C@@H](C(=O)OC)N(S(=O)(=O)c2ccc(F)cc2)C3=N1 (stereo partly specified)
1.03

Data request, read-out inhibition, for Nc1nc2c(ncn2[C@@H]2O[C@H](C(=O)N[C@@H](Cc3ccccc3)C(=O)NCc3ccccc3)[C@@H](O)[C@H]2O)c(=O)[nH]1
-0.25

Data request, read-out inhibition, for CC(C)C[C@H](NC(=O)CC1CCCC1)C(=O)N1CCC[C@H]1C(=O)NCc1ccccc1
0.9

Data request, read-out inhibition, for O=c1[nH]c(-c2ccccc2)cn1C1CCN(Cc2ccc(-c3nc4ccc(F)cc4nc3-c3ccccc3)cc2)CC1
1.06

Data request, read-out inhibition, for Cc1cc(C)c2cc(C#N)c(N3CCNCC3)nc2c1
0.05

Data request, read-out inhibition, for CCc1ccc2c(c1)NC(=O)C2(C)Cc1ccc(OC(F)(F)F)cc1 (stereo unspecified)
1.57

Data request, read-out inhibition, for CC(=O)Nc1ccc(/C=N/NC(=O)c2cccs2)cc1
5.38

Data request, read-out inhibition, for CCOc1cc(/C=C2\C(=N)N3N=C(C)SC3=NC2=O)ccc1OCCOc1ccccc1
-1.53

Data request, read-out inhibition, for CC1CCN(C(=O)c2ncn3c2C(=O)N[C@@H](C)C3)CC1
0.14

Data request, read-out inhibition, for CCN(CC)CCn1c(N)c(S(=O)(=O)c2ccccc2)c2nc3ccccc3nc21
0.85

Data request, read-out inhibition, for Cc1nc(NC(=O)C(C)(C)C)sc1[N+](=O)[O-]
0.16

Data request, read-out inhibition, for CN(C)S(=O)(=O)c1cccc(NC(=S)N/N=C/C(=O)c2ccccc2)c1
1.15

Data request, read-out inhibition, for COC(=O)[C@]1(Cc2ccccc2)NC=C(C(=O)c2ccccc2)[C@@H]1c1cccc(OC)c1
1.03

Data request, read-out inhibition, for Cc1ccc(N)cc1CN1CCN(c2ncc(Cc3ccccc3)cn2)CC1
-0.75

Data request, read-out inhibition, for NC(=O)C1(Nc2ccc([N+](=O)[O-])cc2)CCCC1
1.4

Data request, read-out inhibition, for C/C(=N\OCC(=O)Nc1ccc(Br)cc1)c1cccs1
0

Data request, read-out inhibition, for CCCCC(=O)Nc1ccccc1N1CCN(c2ccc(F)cc2)CC1
-1.12

Data request, read-out inhibition, for CCOc1cc(/C=C2\SC(N3CCCCC3)=NC2=O)ccc1O
4.93

Data request, read-out inhibition, for CC(=O)c1ccc(S(=O)(=O)N2CCN(c3nc4c(C)c(C)ccc4cc3C#N)CC2)cc1
0.77

Data request, read-out inhibition, for O=C(N[C@H](Cc1ccccc1)C(=O)N1CCCN(Cc2cccs2)CC1)[C@H]1O[C@@H](n2ccc(=O)[nH]c2=O)[C@H](O)[C@@H]1O
0.08

Data request, read-out inhibition, for CCC(Cc1ccccc1)NS(=O)(=O)c1ccc2c(c1)NC(=O)CS2 (stereo unspecified)
-0.21

Data request, read-out inhibition, for O=C(Cc1c[nH]c2ccccc12)N/N=C/c1cccc(F)c1
0.41

Data request, read-out inhibition, for O=C(O)c1ccccc1Cc1ccc(F)c2ccccc12
0.31

Data request, read-out inhibition, for CC1(C)CC(=O)C/C(=N\NC(=O)c2cccs2)C1
0.04

Data request, read-out inhibition, for O=C(NC(Cc1c[nH]c2ccccc12)C(=O)N/N=C/c1ccc(Br)cc1)c1cccs1 (stereo unspecified)
1.85

Data request, read-out inhibition, for COc1ccc(NC(=O)NNC(=O)COc2cc(C)c(Cl)c(C)c2)c(OC)c1
-0.36

Data request, read-out inhibition, for O=C(N/N=C/C=C/c1ccco1)c1cccs1
5.18

Data request, read-out inhibition, for Cc1ccc(S(=O)(=O)c2c(N)n(C)c3nc4ccccc4nc23)cc1
4.64

Data request, read-out inhibition, for O=C(O)c1cccc(NC(=S)N/N=C/c2c[nH]c3ccccc23)c1
5.25

Data request, read-out inhibition, for CCC(=O)Nc1c(S(=O)(=O)c2ccccc2)c2nc3ccccc3nc2n1Cc1ccccc1
2.69

Data request, read-out inhibition, for COc1ccccc1C(=O)N1O[C@]23C=C[C@]14C[C@@H](O)CC[C@]4(C)C2CC[C@]1(C)[C@@H]([C@H](C)/C=C/[C@H](C)C(C)C)CC[C@H]13 (stereo partly specified)
-0.78

Data request, read-out inhibition, for COc1ccccc1Cc1c(-c2ccc(F)cc2)nc2ccc(C)cn12
-0.14

Data request, read-out inhibition, for CCCCN1C(=O)C(CC(=O)NCc2cccs2)CC(C(=O)N2CCOCC2)=C1C (stereo unspecified)
0.14

Data request, read-out inhibition, for Cc1c(C=O)c2ccccn2c1C(=O)c1ccncc1
4.76

Data request, read-out inhibition, for C#CCN([C@@H](C)C(=O)OCC)S(=O)(=O)c1ccc(Br)cc1F
-0.88

Data request, read-out inhibition, for O=C(COC(=O)CCC(=O)c1cccs1)NCc1ccco1
-1.07

Data request, read-out inhibition, for COC(=O)c1sccc1N/N=C(\C)c1ccc(F)c(Cl)c1
-0.14

Data request, read-out inhibition, for CCN(CC)CC1(O)CCN(C(=O)c2ccc(Cl)c(Cl)c2)CC1
-0.14

Data request, read-out inhibition, for Cn1c(=O)c2c(nc(N/N=C/c3cccs3)n2Cc2ccc(Br)cc2)n(C)c1=O
-0.37

Data request, read-out inhibition, for O=C(Nc1ccccc1N1CCOCC1)c1ccncc1
1.2
